Cited source for all entries: the Immune Epitope Database (IEDB)

Target: HLA-A*31:01
Assay: IEDB peptide-MHC binding, purified MHC/competitive/radioactivity; filed as Kd, often an IC50 or EC50 that approximates it; bounds were set here for any values at or beyond the usual limits of such assays
Conditions: source organism: Lassa virus Josiah
attributeMeasured: Kd
Note: state the figure and append the unit.

LTYSQLMTLK :: 1960 nM

We now examine a further sequence.
In: Please look up its Kd: VTFLLLCGR
Out: 18.4 nM

* * *

Molecular target: HLA-A*03:01
Assay: IEDB peptide-MHC binding, purified MHC/direct/fluorescence; filed as Kd, often an IC50 or EC50 that approximates it; bounds were set here for any values at or beyond the usual limits of such assays
Conditions: source organism: Coxiella burnetii
attributeMeasured: Kd

In: Please look up its Kd: YMHGSIHEV
Out: ≥ 20 µM

* * *

Target: HLA-A*11:01
Experiment: IEDB peptide-MHC binding, purified MHC/competitive/radioactivity; filed as Kd, often an IC50 or EC50 that approximates it; bounds were set here for any values at or beyond the usual limits of such assays
Details: source organism: Dengue virus 4 Philippines/H241/1956
attributeMeasured: pKd
Numbers only, as −log10 of the molar value.

Guide cases for pKd, answers given:
KTFDTEYPK :: 6.90
TTILTPMLR :: 6.41

We now examine a further sequence.
In: Please look up its pKd: TVGPWHLGK
Out: 7.61

* * *

Target: HLA-C*15:02
Experiment: IEDB peptide-MHC binding, purified MHC/direct/fluorescence; filed as Kd, often an IC50 or EC50 that approximates it; bounds were set here for any values at or beyond the usual limits of such assays
Details: source organism: Mycobacterium tuberculosis C
attributeMeasured: Kd

In: What reported Kd corresponds to VTTPARTAF on HLA-C*15:02?
Out: ≥ 20 µM

* * *

Molecular target: HLA-A*02:01
Experiment: IEDB peptide-MHC binding, purified MHC/direct/fluorescence; filed as Kd, often an IC50 or EC50 that approximates it; bounds were set here for any values at or beyond the usual limits of such assays
Settings: source organism: Haemophilus influenzae
pKd: −log10 of the molar value.
attributeMeasured: pKd

In: Please look up its pKd: LAEQFSGEY
Out: ≤ 4.70

* * *

Molecular target: HLA-B*46:01
Assay: IEDB peptide-MHC binding, purified MHC/direct/fluorescence; filed as Kd, often an IC50 or EC50 that approximates it; bounds were set here for any values at or beyond the usual limits of such assays
Conditions: source organism: Zaire ebolavirus
attributeMeasured: Kd

YDRLASTVI :: ≥ 20 µM

In: What reported Kd corresponds to GHMMVIFRL on HLA-B*46:01?
Out: ≥ 20 µM

* * *

Target: HLA-B*14:02
Assay: IEDB peptide-MHC binding, purified MHC/competitive/fluorescence; bounds were set here for any values at or beyond the usual limits of such assays
Details: source organism: Horsepox virus
attributeMeasured: IC50 (nM)
Give bare numbers, in nM.

In: What reported IC50 corresponds to MPAYIRNTL on HLA-B*14:02?
Out: 453

* * *

Biological target: HLA-A*69:01
Test: IEDB peptide-MHC binding, purified MHC/direct/fluorescence; filed as Kd, often an IC50 or EC50 that approximates it; bounds were set here for any values at or beyond the usual limits of such assays
Conditions: source organism: West Nile virus
pKd: −log10 of the molar value.
attributeMeasured: pKd

TRAVGKPLL :: ≤ 4.70

In: Please look up its pKd: TLARGFPFV
Out: ≥ 9.00
